# target_of_assay: Disintegrin and metalloproteinase domain-containing protein 17 (Homo sapiens) (UniProt P78536)
# Sequence (P78536 215-824 limits assumed): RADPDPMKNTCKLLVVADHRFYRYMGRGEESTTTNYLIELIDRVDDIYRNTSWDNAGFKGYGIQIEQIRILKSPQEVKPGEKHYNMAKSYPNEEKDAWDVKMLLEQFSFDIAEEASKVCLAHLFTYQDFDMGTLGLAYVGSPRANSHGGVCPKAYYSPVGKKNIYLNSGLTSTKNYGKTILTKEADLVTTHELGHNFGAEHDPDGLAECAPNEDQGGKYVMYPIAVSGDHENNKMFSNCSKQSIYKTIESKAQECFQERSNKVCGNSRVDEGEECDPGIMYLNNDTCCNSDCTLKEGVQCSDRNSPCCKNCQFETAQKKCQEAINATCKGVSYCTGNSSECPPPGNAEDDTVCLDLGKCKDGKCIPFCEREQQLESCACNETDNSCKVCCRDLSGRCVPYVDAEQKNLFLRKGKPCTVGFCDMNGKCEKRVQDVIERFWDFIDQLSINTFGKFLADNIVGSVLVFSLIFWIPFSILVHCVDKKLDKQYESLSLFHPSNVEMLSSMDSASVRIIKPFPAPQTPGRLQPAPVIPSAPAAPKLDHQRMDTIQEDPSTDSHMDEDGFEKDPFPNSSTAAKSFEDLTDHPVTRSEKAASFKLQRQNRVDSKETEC
# assay_explanation: ADAM17 inhibitors, hit retest, confirmation, biochemical, QFRET peptide cleavage (AID 743257);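 note: 0% = DMSO wells and 100% = marimastat wells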
# test_conditions: recombinant ADAM17, EDANS/DABCYL QFRET peptide cleavage; at 6.95 µM
Hit rate of the full screen: of about 2,900 compounds, about 1,900 (66%) were called active.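 Rule for the calls: active = mean inhibition across replicates above the hit cutoff set in the primary screen (cut at about 8.5% in these data); inactive = the rest.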 So high a share suggests a set chosen from earlier hits. A selection follows.
Write down the outcome that applies. Available outcomes: label 1 for active, label 0 for inactive

Cn1nc(C(F)(F)F)c2cc(NC(=O)OCC(C)(C)C)sc21; label 1
O=C1[C@H]2[C@@H](c3ccc(C(F)(F)F)cc3)N[C@]3(CCCN(Cc4ccc(Br)cc4)C3=O)[C@H]2C(=O)N1Cc1ccccc1; label 1
COc1ccccc1C(=O)NCC(=O)OCC(=O)NNC(=O)c1ccc(Br)cc1; label 0
Cc1onc(C(=O)NN)c1-c1csc(COc2ccccc2)n1; label 0

Okay, next one:
Please share the test call associated with N/C(Cc1ccc([N+](=O)[O-])cc1)=N\OC(=O)COc1ccc2ccccc2c1 .
label 0

----------
# target_of_assay: Disintegrin and metalloproteinase domain-containing protein 17 (Homo sapiens) (UniProt P78536)
# assay_explanation: ADAM17 inhibitors, hit retest, confirmation, biochemical, QFRET peptide cleavage (AID 743257);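 note: 0% = DMSO wells and 100% = marimastat wells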
# test_conditions: recombinant ADAM17, EDANS/DABCYL QFRET peptide cleavage; at 6.95 µM; active compounds read high
In all, about 2,900 compounds went through this assay and about 1,900 (66%) were called active. The set was probably picked from earlier hits. A selection follows.
measured_quantity: inhibition (%)
One number for each entry, in %.

Consider the following illustrative entries.
CC(C)(C)c1ccc(S(=O)(=O)NCC2CCN(C(=O)C(=O)c3cc4ccccc4o3)CC2)cc1; 15.1
C[C@@H]1CN([C@H](C)CO)C(=O)c2cc(-c3ccc(F)cc3)cnc2O[C@H]1CN(C)C(=O)c1ccc(F)cc1; 8.52
CC1(Cc2cccc(C#N)c2)C(=O)Nc2ccc(-c3cccc(C(F)(F)F)c3)cc21 (stereo not given); 16.4
Cc1ccc(Cn2nnc3c(=O)[nH]c(C4CCN(S(=O)(=O)/C=C/c5ccccc5)CC4)nc32)cc1; 20.1

# context switch: different compound, same inhibition
Which inhibition reading was recorded for the compound Cc1ccc(C(=O)Nc2ccc(C)c(S(=O)(=O)N(C)C)c2)s1 ?
10.8

----------
For each record, write down the corresponding inhibition.
# target_of_assay: Disintegrin and metalloproteinase domain-containing protein 17 (Homo sapiens) (UniProt P78536)
# assay_explanation: ADAM17 inhibitors, hit retest, confirmation, biochemical, QFRET peptide cleavage (AID 743257);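 note: 0% = DMSO wells and 100% = marimastat wells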
# test_conditions: recombinant ADAM17, EDANS/DABCYL QFRET peptide cleavage; at 6.95 µM; active compounds read high
Among all 2,900 compounds or so, about 1,900 (66%) were called active. So high a share suggests a set chosen from earlier hits. The list is a sample of the results.
Answers are plain numbers, in %.

The cases that follow already have their inhibition on record.
CC1(C)C=Cc2c(ccc3c2OC[C@@H](c2ccc(O)cc2O)C3)O1; 12.3
O=C(Nn1c(SCc2ccc([N+](=O)[O-])cc2)nc2ccccc2c1=O)c1ccc(F)cc1; 16.4
Cc1ccc(-c2nnc(SCC(=O)Nc3ccc(Oc4ccccc4)cc3)n2Cc2ccco2)cc1; 18.5
CC(C)(C)OC(=O)N1CCC(NC(=O)c2[nH]cnc2C(=O)N[C@@H](Cc2ccccc2)C(=O)OCc2ccccc2)CC1; 22.4
COc1ccc(C(=O)NN2C(=O)C3C(c4ccccc4)C=CC(c4ccccc4)C3C2=O)cc1 (centres undefined); 14
CCOc1ccccc1C1CC(c2cccc(NS(C)(=O)=O)c2)=NN1C(=O)c1ccccc1 (centres undefined); 3.69

The following compounds each have a reported value; give each one's inhibition.
1. CC(C)N(C(=O)[C@H]1C[C@H](CC(=O)NC(C)(C)C)C(=O)N2CCc3c([nH]c4ccc(Cl)cc34)[C@]12C)C(C)C
2. COc1ccc(-c2cc(C3CCN(c4ncccc4[N+](=O)[O-])CC3)[nH]n2)cc1
3. O=C(OCc1ccc(-c2ccccc2)cc1)c1cccc(O)c1

1: 8.88; 2: 13.2; 3: 15.7
